Ki for assorted compounds
- Test system: Induced myeloid leukemia cell differentiation protein Mcl-1 (Homo sapiens, UniProt Q07820)
- Sequence (Q07820 whole entry): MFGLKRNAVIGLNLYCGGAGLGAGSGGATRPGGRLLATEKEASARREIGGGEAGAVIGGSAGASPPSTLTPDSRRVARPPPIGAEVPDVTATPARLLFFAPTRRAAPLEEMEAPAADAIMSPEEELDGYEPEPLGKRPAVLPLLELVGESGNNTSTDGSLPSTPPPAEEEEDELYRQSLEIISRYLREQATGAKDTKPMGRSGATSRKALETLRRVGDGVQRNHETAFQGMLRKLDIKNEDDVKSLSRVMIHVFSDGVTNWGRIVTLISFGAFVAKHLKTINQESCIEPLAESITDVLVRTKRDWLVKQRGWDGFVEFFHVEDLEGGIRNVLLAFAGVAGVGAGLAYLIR
- Experiment notes: biochemical
Readout name: Ki (µM)

INSERT INTO results (compound, quantitative_result) VALUES
  ('CCc1sc2ncnc(O[C@H](C)C(=O)O)c2c1-c1ccc2ccccc2c1', 6),
  ('CCc1sc2ncnc(O[C@H](Cc3ccccc3)C(=O)O)c2c1-c1ccc(OCC(=O)N2CCN(C)CC2)c(Cl)c1C', 0.021),
  ('CCc1sc2nc(S(C)(=O)=O)nc(N[C@H](C)C(=O)O)c2c1-c1cccc(Oc2ccc(F)cc2)c1', 44),
  ('CCc1sc2ncnc(O[C@H](Cc3ccccc3)C(=O)O)c2c1-c1cccc2[nH]ccc12 (stereo in doubt; 9b)', 0.64);

---

- Test system: UniProt P10635
- Sequence (P10635 whole entry): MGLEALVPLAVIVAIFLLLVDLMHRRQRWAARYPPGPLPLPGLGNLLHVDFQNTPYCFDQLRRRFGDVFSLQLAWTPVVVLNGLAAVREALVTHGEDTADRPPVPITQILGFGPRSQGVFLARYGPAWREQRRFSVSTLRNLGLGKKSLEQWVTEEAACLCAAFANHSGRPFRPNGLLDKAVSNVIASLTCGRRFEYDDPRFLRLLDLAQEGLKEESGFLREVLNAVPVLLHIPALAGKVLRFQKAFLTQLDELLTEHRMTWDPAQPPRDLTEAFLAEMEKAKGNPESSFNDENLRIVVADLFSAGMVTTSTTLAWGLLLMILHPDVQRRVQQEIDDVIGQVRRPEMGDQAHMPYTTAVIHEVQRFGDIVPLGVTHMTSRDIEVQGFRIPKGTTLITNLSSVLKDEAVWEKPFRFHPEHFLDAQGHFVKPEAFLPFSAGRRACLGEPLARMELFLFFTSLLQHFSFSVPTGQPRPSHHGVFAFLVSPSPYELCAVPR
Readout name: IC50

INSERT INTO measurements (compound, test_system, readout_name, result) VALUES
  ('CCc1sc2ncnc(N[C@H](Cc3ccccc3)C(=O)O)c2c1-c1ccc(OCCN2CCN(C)CC2)c(Cl)c1C (stereo in doubt; 17a)', 'UniProt P10635', 'IC50', '≥ 20 µM');

---

pKd for assorted compounds
- Test system: Induced myeloid leukemia cell differentiation protein Mcl-1 (Homo sapiens, UniProt Q07820)
- Experiment notes: biochemical
- Description: Binding affinity to TEV-fused His-tagged human Mcl-1 expressed in Escherichia coliBL21(DE3) pLysS cells by Isothermal Titration Calorimetry
pKd: −log10 of the molar value.
Readout name: pKd

INSERT INTO results (compound_structure, test_system, quantitative_result) VALUES
  ('CCc1sc2ncnc(N[C@H](Cc3ccccc3OCCN3CCN(C)CC3)C(=O)O)c2c1-c1cccc(Cl)c1C', 'Induced myeloid leukemia cell differentiation protein Mcl-1 (Homo sapiens, UniProt Q07820)', 6.44),
  ('CCc1sc2ncnc(N[C@H](Cc3ccccc3OC)C(=O)O)c2c1-c1cccc(Cl)c1C', 'Induced myeloid leukemia cell differentiation protein Mcl-1 (Homo sapiens, UniProt Q07820)', 7.62);

---

- Test system: Induced myeloid leukemia cell differentiation protein Mcl-1 (Homo sapiens)
- Experiment notes: biochemical
pKi: −log10 of the molar value.
Readout name: pKi

INSERT INTO results (molecule, readout_name, quantitative_result) VALUES
  ('CCc1sc2ncnc(O[C@H](Cc3ccccc3)C(=O)O)c2c1-c1cccc2[nH]ccc12 (stereo in doubt; 9a)', 'pKi', 6.31),
  ('C[C@@H](Nc1ncnc2sc(-c3ccccc3)c(-c3cccc(O)c3)c12)C(=O)O', 'pKi', 4.57),
  ('CCc1sc2ncnc(N[C@H](Cc3ccccc3)C(=O)O)c2c1-c1cccc(O)c1', 'pKi', 5.00);

---

log10 Ki for assorted compounds
- Test system: Induced myeloid leukemia cell differentiation protein Mcl-1 (Homo sapiens, UniProt Q07820)
- Experiment notes: biochemical
Readout name: log10 Ki (log10 of the value in µM)

INSERT INTO results (compound, readout_name, quantitative_result) VALUES
  ('CCc1sc2ncnc(N[C@H](Cc3ccccc3)C(=O)O)c2c1-c1cccc2[nH]ccc12 (stereo in doubt; 8b)', 'log10 Ki', 0.76),
  ('CCc1sc2ncnc(O[C@H](Cc3ccccc3)C(=O)O)c2c1-c1cccc(Br)c1C (stereo in doubt; 10b)', 'log10 Ki', -0.48),
  ('CCc1sc2ncnc(N[C@@H](C)C(=O)O)c2c1-c1ccc(SC)cc1', 'log10 Ki', 1.64),
  ('CCc1sc2ncnc(NC(C(=O)O)c3ccccc3)c2c1-c1cccc(Oc2ccc(F)cc2)c1 (racemic)', 'log10 Ki', 1.83),
  ('CCc1sc2ncnc(N[C@@H](Cc3ccccc3)C(=O)O)c2c1-c1cccc(Oc2ccc(F)cc2)c1', 'log10 Ki', 1.89),
  ('CCc1sc2ncnc(N[C@@H](Cc3ccccc3)C(=O)O)c2c1-c1cccc(O)c1', 'log10 Ki', 1.76),
  ('CCc1sc2ncnc(N[C@H](Cc3ccccc3OC)C(=O)O)c2c1-c1cccc(Cl)c1C', 'log10 Ki', -0.59),
  ('CCc1sc2ncnc(O[C@H](Cc3ccccc3)C(=O)O)c2c1-c1cc2cc(CN(C)C)oc2c(Cl)c1C', 'log10 Ki', -1.12);

---

- Test system: Induced myeloid leukemia cell differentiation protein Mcl-1 (Homo sapiens)
- Experiment notes: biochemical
pKi: −log10 of the molar value.
pKi for assorted molecules
Readout name: pKi

INSERT INTO assay_data (molecule, quantitative_result) VALUES
  ('CCc1sc2ncnc(O[C@H](C)C(=O)O)c2c1-c1ccc(C(C)C)cc1', 5.09),
  ('CCc1sc2ncnc(N[C@H](Cc3ccccc3)C(=O)O)c2c1-c1cccc(Oc2ccc(F)cc2)c1', 4.29),
  ('CCc1sc2ncnc(N[C@H](C)C(=O)O)c2c1-c1cccc(O)c1', 4.35),
  ('O=C(O)[C@@H](Cc1ccccc1)Nc1ncnc2sc(-c3ccccc3)c(-c3cccc(O)c3)c12', 4.62),
  ('CCc1sc2ncnc(N[C@@H](C)C(=O)O)c2c1-c1ccccc1', 3.96),
  ('CCc1sc2ncnc(NC(CO)C(=O)O)c2c1-c1cccc(Oc2ccc(F)cc2)c1 (racemic)', 4.21),
  ('CCc1sc2ncnc(O[C@H](C)C(=O)O)c2c1-c1ccccc1C (stereo in doubt; 7d)', 4.74),
  ('CCc1sc2ncnc(N[C@@H](C)C(=O)O)c2c1-c1cccc(C(F)(F)F)c1', 4.68),
  ('CCc1sc2ncnc(N[C@H](C)C(=O)O)c2c1-c1cccc(Oc2ccc(F)cc2)c1', 4.72),
  ('C[C@@H](Nc1ncnc2scc(-c3cccc(O)c3)c12)C(=O)O', 4.23),
  ('CCc1sc2nc(-c3cccnc3)nc(N[C@H](C)C(=O)O)c2c1-c1cccc(Oc2ccc(F)cc2)c1', 5.08),
  ('CCc1sc2ncnc(N[C@H](C)C(=O)O)c2c1-c1ccc2ccccc2c1', 3.96),
  ('CCc1sc2ncnc(N[C@H](CC3CCCCC3)C(=O)O)c2c1-c1cccc(Oc2ccc(F)cc2)c1', 4.28),
  ('CCc1sc2ncnc(O[C@H](Cc3ccccc3)C(=O)O)c2c1-c1cccc(Cl)c1C', 6.09),
  ('CCc1sc2ncnc(O[C@H](Cc3ccccc3)C(=O)O)c2c1-c1cccc(Br)c1C (stereo in doubt; 10a)', 5.28),
  ('CCc1sc2ncnc(O[C@H](Cc3ccccc3)C(=O)O)c2c1-c1cc(CN2CCN(C)CC2)c(O)c(Cl)c1C', 7.49),
  ('CCc1sc2ncnc(O[C@H](Cc3ccccc3)C(=O)O)c2c1-c1ccccc1C (stereo in doubt; 9c)', 5.47),
  ('CCc1sc2ncnc(N[C@@H](C)C(=O)O)c2c1CC', 4.30),
  ('CCc1sc2ncnc(N[C@@H](C(=O)O)c3ccccc3)c2c1-c1cccc(O)c1', 5.11);

---

- Experiment notes: in vivo
- Test parameters: mouse, iv, 1 mg/kg
- Description: AUCt in mouse at 1 mpk, iv
Readout name: AUC(0-t)

INSERT INTO results (compound, result) VALUES
  ('CCc1sc2ncnc(N[C@H](Cc3ccccc3)C(=O)O)c2c1-c1ccc(OCCN2CCN(C)CC2)c(Cl)c1C (stereo in doubt; 17a)', '509 ng·h/mL');

---

- Experiment notes: in vivo
- Test parameters: mouse, iv, 1 mg/kg
- Description: Half-life in mouse at 1 mpk, iv
Readout name: half-life (min)

INSERT INTO results (compound, quantitative_result) VALUES
  ('CCc1sc2ncnc(N[C@H](Cc3ccccc3)C(=O)O)c2c1-c1ccc(OCCN2CCN(C)CC2)c(Cl)c1C (stereo in doubt; 17a)', 39);

---

pKi for assorted molecules
- Test system: Induced myeloid leukemia cell differentiation protein Mcl-1 (Homo sapiens, UniProt Q07820)
- Experiment notes: biochemical
pKi: −log10 of the molar value.
Readout name: pKi

INSERT INTO measurements (molecule, readout_name, quantitative_result) VALUES
  ('CCc1sc2ncnc(N[C@H](C)C(=O)O)c2c1-c1ccccc1C', 'pKi', 4.00),
  ('C=C(C)c1sc2ncnc(N[C@H](Cc3ccccc3)C(=O)O)c2c1-c1cccc(Cl)c1C', 'pKi', 4.72),
  ('CCc1sc2ncnc(N[C@H](Cc3ccccc3)C(=O)O)c2c1-c1ccc(OCCN2CCN(C)CC2)c(Cl)c1C (stereo in doubt; 17b)', 'pKi', 3.77),
  ('CCc1sc2ncnc(N[C@H](Cc3ccccc3OCCN3CCN(C)CC3)C(=O)O)c2c1-c1cccc(Cl)c1C', 'pKi', 5.70);

---

Sequence of the target: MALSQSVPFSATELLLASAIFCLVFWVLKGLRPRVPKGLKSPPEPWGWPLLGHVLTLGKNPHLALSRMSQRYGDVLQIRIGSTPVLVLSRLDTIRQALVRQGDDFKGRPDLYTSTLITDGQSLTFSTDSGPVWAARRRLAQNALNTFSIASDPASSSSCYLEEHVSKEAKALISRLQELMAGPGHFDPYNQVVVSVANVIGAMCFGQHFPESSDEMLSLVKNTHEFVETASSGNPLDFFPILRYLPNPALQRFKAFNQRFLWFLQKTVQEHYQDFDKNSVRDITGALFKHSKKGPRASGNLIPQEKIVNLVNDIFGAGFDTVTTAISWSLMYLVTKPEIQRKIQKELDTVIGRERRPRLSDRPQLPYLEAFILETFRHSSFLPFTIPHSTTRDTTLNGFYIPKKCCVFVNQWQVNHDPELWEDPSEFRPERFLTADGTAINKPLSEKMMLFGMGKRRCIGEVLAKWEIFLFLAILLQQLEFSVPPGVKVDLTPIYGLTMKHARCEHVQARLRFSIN
pIC50: −log10 of the molar value.
Readout name: pIC50

INSERT INTO measurements (compound, result) VALUES
  ('CCc1sc2ncnc(N[C@H](Cc3ccccc3)C(=O)O)c2c1-c1ccc(OCCN2CCN(C)CC2)c(Cl)c1C (stereo in doubt; 17a)', '≤ 4.70');
